Where do the numbers come from? From the kinase profiling compilation of Christmann-Franck et al. (2016).

- measurement_target: PLK1 (human)
- assay_overview: SelectScreen, TR FRET
- condition_details: compound 10.0 µM
measurement_kind: inhibition (%)

A = CC(C)Nc1c(C(N)=O)nnc2cc(-c3ccncc3)ccc12
B = CC(C)Nc1c(C(N)=O)nnc2cc(-c3ccc(N4CCOCC4)cc3)ccc12
C = CC(C)Nc1c(C(N)=O)cnc2cc(-c3ccc(S(C)(=O)=O)cc3)ccc12
D = CS(=O)(=O)c1ccc(-c2ccc3c(NC4CCC4)c(C(N)=O)nnc3c2)cc1
E = C[C@@H](Nc1c(C(N)=O)nnc2cc(-c3ccc(S(C)(=O)=O)cc3)ccc12)C1CC1
From the items above, give an ordering by inhibition that starts at the lowest reported number. List each label, following the requested order.
C, E, B, D, A
(C: 0.631%, E: 1.06%, B: 3.31%, D: 13.7%, A: 33.4%)

====

- measurement_target: UniProt:P06213
- Sequence (P06213 whole entry, looked up): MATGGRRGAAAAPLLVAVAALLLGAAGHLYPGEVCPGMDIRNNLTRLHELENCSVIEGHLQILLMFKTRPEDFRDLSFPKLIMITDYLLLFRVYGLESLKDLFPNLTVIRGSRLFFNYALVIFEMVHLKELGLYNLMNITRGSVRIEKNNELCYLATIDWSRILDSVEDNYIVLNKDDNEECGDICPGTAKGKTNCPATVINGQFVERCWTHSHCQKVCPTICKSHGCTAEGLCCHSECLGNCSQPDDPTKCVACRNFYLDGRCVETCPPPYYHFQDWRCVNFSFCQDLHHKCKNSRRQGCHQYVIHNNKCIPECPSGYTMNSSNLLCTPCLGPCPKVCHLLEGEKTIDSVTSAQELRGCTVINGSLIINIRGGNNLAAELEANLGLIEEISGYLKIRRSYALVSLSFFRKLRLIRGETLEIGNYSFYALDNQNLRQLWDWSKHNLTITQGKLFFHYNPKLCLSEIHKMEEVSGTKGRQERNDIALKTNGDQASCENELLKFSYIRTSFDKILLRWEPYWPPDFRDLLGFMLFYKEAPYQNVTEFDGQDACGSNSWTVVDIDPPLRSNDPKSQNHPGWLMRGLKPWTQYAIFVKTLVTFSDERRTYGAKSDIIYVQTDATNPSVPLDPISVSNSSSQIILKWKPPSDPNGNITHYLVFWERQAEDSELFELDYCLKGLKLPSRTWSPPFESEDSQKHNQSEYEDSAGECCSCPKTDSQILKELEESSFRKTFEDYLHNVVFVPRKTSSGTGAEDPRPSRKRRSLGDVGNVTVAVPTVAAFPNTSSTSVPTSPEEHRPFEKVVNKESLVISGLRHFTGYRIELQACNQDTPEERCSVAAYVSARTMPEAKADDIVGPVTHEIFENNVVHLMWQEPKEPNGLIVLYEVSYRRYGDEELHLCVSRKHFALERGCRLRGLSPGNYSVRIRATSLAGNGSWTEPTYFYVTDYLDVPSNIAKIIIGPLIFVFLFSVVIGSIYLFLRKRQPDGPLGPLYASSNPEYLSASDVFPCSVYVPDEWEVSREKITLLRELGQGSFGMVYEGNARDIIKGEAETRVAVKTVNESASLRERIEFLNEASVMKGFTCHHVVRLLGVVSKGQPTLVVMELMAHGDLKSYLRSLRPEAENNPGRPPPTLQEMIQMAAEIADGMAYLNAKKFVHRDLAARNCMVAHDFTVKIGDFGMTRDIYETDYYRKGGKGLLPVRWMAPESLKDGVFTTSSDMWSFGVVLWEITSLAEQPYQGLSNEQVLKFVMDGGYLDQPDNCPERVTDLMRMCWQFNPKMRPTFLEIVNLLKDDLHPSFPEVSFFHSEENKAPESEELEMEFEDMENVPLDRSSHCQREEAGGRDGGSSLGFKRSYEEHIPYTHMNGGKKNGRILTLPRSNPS
- assay_overview: SelectScreen, TR FRET
- condition_details: compound 10.0 µM
measurement_kind: inhibition (%)

{"columns": ["smiles_text", "inhibition [%]"],
 "data": [
  ["CC(C)Nc1c(C(N)=O)nnc2cc(-c3ccc(N4CCOCC4)cc3)ccc12", -0.801]
]}

a = CC(C)Nc1c(C(N)=O)cnc2cc(-c3ccc(S(C)(=O)=O)cc3)ccc12
b = CC(C)Nc1c(C(N)=O)nnc2ccc(-c3ccncc3)cc12
c = C[C@@H](Nc1c(C(N)=O)nnc2cc(-c3ccc(S(C)(=O)=O)cc3)ccc12)C1CC1
d = CS(=O)(=O)c1ccc(-c2ccc3c(NC4CCC4)c(C(N)=O)nnc3c2)cc1
Rank the items in ascending order with respect to inhibition. Answer by listing the labels in the requested order.
c, a, d, b

====

- measurement_target: PIK3CA PIK3R1 (human) (UniProt P27986+P42336)
- Sequence (P27986 whole entry, looked up): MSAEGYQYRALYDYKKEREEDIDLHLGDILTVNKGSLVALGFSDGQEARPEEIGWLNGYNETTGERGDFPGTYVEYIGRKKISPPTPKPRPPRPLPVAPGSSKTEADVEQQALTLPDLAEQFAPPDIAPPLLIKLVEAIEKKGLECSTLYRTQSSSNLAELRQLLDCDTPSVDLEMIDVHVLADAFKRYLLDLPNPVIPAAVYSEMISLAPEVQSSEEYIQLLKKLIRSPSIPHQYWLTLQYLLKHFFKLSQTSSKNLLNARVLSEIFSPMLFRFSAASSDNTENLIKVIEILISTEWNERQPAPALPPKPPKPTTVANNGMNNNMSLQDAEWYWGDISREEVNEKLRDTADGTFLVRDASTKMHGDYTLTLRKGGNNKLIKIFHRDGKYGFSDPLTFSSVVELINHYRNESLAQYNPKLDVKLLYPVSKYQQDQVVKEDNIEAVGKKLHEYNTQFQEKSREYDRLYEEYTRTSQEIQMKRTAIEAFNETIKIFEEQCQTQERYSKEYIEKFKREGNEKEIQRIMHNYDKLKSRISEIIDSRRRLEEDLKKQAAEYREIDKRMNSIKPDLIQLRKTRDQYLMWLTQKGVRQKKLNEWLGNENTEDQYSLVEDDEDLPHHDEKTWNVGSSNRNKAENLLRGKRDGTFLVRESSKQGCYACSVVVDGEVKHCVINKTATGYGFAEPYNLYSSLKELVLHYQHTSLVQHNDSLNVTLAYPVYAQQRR
- Sequence (P42336 whole entry, looked up): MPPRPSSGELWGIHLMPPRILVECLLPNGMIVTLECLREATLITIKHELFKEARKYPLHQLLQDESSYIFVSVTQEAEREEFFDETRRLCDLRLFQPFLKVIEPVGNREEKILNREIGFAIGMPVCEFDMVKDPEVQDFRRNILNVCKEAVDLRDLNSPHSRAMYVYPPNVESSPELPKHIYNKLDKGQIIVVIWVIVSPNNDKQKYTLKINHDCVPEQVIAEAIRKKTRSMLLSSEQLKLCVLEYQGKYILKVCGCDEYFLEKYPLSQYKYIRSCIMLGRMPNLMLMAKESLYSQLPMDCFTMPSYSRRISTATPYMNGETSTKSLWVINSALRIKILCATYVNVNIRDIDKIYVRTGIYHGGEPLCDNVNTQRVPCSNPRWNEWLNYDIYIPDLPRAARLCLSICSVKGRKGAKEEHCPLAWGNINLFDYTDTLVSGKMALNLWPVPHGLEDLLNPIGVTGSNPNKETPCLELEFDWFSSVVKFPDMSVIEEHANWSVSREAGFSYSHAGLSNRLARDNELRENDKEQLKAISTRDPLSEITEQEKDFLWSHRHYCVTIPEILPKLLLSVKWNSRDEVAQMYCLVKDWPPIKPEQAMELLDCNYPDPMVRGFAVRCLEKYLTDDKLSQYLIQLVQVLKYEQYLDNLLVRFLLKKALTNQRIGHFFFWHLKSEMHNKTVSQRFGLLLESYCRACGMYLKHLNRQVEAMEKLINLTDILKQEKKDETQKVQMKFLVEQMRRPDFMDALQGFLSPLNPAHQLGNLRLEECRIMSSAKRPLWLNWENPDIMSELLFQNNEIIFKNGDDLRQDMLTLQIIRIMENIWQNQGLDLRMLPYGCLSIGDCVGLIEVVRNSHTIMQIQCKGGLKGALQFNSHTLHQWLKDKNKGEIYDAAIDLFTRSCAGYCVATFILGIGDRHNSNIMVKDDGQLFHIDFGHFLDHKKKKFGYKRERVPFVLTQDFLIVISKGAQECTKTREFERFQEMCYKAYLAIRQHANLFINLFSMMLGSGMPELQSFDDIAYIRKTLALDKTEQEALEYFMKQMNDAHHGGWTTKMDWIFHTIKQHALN
- assay_overview: SelectScreen, TR FRET
- condition_details: compound 10.0 µM
measurement_kind: inhibition (%)

Solved entries (count: 2):
{"columns": ["smiles_text", "numeric_result"],
 "data": [
  ["CC(C)Nc1c(C(N)=O)nnc2cc(-c3ccc(N4CCOCC4)cc3)ccc12", 15.2],
  ["C[C@@H](Nc1c(C(N)=O)nnc2cc(-c3ccc(S(C)(=O)=O)cc3)ccc12)C1CC1", 9.68]
]}

A = CC(C)Nc1c(C(N)=O)cnc2cc(-c3ccc(S(C)(=O)=O)cc3)ccc12
B = CS(=O)(=O)c1ccc(-c2ccc3c(NC4CCC4)c(C(N)=O)nnc3c2)cc1
Given A and B , report the one with the higher recorded inhibition. Indicate your choice by writing its label.
B

====

- measurement_target: CAMK2A (human) (UniProt Q9UQM7)
- Sequence (Q9UQM7 whole entry, looked up): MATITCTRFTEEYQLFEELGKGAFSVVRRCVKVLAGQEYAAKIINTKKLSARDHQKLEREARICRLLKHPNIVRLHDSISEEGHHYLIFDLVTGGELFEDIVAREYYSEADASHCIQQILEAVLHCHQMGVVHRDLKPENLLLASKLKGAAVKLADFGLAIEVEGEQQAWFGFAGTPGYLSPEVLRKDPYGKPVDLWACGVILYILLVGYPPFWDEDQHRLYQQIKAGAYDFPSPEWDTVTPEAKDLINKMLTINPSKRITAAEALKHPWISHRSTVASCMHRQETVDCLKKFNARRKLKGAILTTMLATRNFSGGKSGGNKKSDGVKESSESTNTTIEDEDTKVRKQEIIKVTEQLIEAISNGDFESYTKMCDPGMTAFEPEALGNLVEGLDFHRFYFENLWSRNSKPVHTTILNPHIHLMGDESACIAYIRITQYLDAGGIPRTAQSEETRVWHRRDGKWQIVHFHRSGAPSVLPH
- assay_overview: SelectScreen, TR FRET
- condition_details: compound 10.0 µM
measurement_kind: inhibition (%)

Below: 2 compounds and their reported inhibition.
{"columns": ["smiles_text", "readout_units", "numeric_result"],
 "data": [
  ["CC(C)Nc1c(C(N)=O)nnc2cc(-c3ccncc3)ccc12", "%", 13.6],
  ["C[C@@H](Nc1c(C(N)=O)nnc2cc(-c3ccc(S(C)(=O)=O)cc3)ccc12)C1CC1", "%", 14.6]
]}

1 = CS(=O)(=O)c1ccc(-c2ccc3c(NC4CCC4)c(C(N)=O)nnc3c2)cc1
2 = CC(C)Nc1c(C(N)=O)cnc2cc(-c3ccc(S(C)(=O)=O)cc3)ccc12
3 = CC(C)Nc1c(C(N)=O)nnc2cc(-c3ccc(N4CCOCC4)cc3)ccc12
In this exercise, place the 3 compounds in ascending sequence of their recorded inhibition. Give the labels in the order requested.
2, 1, 3
(2: -0.0898%, 1: 10.5%, 3: 17.4%)

====

- measurement_target: LRRK2 (human), Q5S007 [G2019S]
- assay_overview: HTRF
measurement_kind: pIC50
pIC50 field: float, defined as -log10 of concentration (mol/L).

Form field: reported pIC50 of CC(C)Nc1c(C(N)=O)nnc2cc(-c3ccc(N4CCOCC4)cc3)ccc12
7.92

====

- measurement_target: AKT1 (human) (UniProt P31749)
- assay_overview: SelectScreen, TR FRET
- condition_details: compound 10.0 µM
measurement_kind: inhibition (%)

Take a look at these entries with their results.
{"columns": ["smiles_text", "readout_units", "inhibition"],
 "data": [
  ["CC(C)Nc1c(C(N)=O)nnc2cc(-c3ccncc3)ccc12", "%", 12.7],
  ["CC(C)Nc1c(C(N)=O)cnc2cc(-c3ccc(S(C)(=O)=O)cc3)ccc12", "%", 4.75],
  ["C[C@@H](Nc1c(C(N)=O)nnc2cc(-c3ccc(S(C)(=O)=O)cc3)ccc12)C1CC1", "%", 4.06]
]}

P = CS(=O)(=O)c1ccc(-c2ccc3c(NC4CCC4)c(C(N)=O)nnc3c2)cc1
Q = CC(C)Nc1c(C(N)=O)nnc2cc(-c3ccc(N4CCOCC4)cc3)ccc12
# return whichever of P and Q has the smaller inhibition # respond with the chosen item's label
Q
(Q: 1.33%, P: 4.88%)

====

- measurement_target: PRKCB1 (human) (UniProt P05771)
- Sequence (P05771 whole entry, looked up): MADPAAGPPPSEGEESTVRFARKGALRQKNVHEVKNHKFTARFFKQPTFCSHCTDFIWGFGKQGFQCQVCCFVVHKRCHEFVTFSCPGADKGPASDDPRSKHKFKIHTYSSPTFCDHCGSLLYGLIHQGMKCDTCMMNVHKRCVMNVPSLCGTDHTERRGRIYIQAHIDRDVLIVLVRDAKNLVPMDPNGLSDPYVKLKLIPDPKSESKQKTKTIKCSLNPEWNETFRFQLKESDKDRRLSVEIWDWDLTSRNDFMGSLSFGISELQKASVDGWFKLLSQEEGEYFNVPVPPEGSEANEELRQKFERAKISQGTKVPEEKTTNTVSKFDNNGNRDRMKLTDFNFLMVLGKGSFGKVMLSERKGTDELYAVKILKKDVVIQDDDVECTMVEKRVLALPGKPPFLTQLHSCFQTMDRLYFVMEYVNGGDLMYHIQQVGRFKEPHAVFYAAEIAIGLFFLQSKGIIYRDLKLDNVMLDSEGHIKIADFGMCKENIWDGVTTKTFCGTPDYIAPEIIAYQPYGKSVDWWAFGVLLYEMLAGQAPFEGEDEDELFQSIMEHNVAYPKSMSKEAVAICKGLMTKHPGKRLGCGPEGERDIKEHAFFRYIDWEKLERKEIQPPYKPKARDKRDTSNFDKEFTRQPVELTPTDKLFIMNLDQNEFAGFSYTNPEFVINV
- assay_overview: SelectScreen, TR FRET
- condition_details: compound 10.0 µM
measurement_kind: inhibition (%)

A = CC(C)Nc1c(C(N)=O)nnc2cc(-c3ccc(N4CCOCC4)cc3)ccc12
B = CS(=O)(=O)c1ccc(-c2ccc3c(NC4CCC4)c(C(N)=O)nnc3c2)cc1
C = C[C@@H](Nc1c(C(N)=O)nnc2cc(-c3ccc(S(C)(=O)=O)cc3)ccc12)C1CC1
D = CC(C)Nc1c(C(N)=O)cnc2cc(-c3ccc(S(C)(=O)=O)cc3)ccc12
Order these by inhibition, descending, and give the full ranking. Would you mind listing the labels in the order requested?
D, C, A, B

====

- measurement_target: UniProt Q9NYY3
- Sequence (Q9NYY3 whole entry, looked up): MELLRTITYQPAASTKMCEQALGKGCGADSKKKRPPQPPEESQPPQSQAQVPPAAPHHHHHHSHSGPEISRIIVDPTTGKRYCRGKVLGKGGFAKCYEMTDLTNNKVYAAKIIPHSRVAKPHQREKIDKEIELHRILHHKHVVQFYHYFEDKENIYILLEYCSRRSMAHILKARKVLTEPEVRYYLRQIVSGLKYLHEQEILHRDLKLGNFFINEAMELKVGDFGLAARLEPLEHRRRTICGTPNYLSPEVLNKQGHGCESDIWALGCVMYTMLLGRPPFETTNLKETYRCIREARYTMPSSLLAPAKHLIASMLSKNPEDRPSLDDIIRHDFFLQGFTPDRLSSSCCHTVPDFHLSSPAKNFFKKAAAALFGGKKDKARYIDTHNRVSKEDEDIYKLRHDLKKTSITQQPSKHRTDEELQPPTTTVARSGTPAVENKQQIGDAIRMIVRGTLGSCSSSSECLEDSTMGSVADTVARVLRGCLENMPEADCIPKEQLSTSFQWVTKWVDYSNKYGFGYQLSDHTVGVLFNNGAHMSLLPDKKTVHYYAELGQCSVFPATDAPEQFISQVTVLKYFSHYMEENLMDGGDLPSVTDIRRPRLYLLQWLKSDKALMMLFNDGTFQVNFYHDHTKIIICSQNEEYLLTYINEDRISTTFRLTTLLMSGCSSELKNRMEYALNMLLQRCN
- assay_overview: SelectScreen, TR FRET
- condition_details: compound 10.0 µM
measurement_kind: inhibition (%)

A = CS(=O)(=O)c1ccc(-c2ccc3c(NC4CCC4)c(C(N)=O)nnc3c2)cc1
B = CC(C)Nc1c(C(N)=O)nnc2cc(-c3ccc(N4CCOCC4)cc3)ccc12
C = C[C@@H](Nc1c(C(N)=O)nnc2cc(-c3ccc(S(C)(=O)=O)cc3)ccc12)C1CC1
Sort by inhibition with smallest numbers at the start of the list. Answer by naming the labels in the order asked.
B, A, C

====

- measurement_target: PRKACA (human) (UniProt P17612)
- assay_overview: SelectScreen, TR FRET
- condition_details: compound 10.0 µM
measurement_kind: inhibition (%)

A = CC(C)Nc1c(C(N)=O)cnc2cc(-c3ccc(S(C)(=O)=O)cc3)ccc12
B = CS(=O)(=O)c1ccc(-c2ccc3c(NC4CCC4)c(C(N)=O)nnc3c2)cc1
C = CC(C)Nc1c(C(N)=O)nnc2cc(-c3ccc(N4CCOCC4)cc3)ccc12
D = C[C@@H](Nc1c(C(N)=O)nnc2cc(-c3ccc(S(C)(=O)=O)cc3)ccc12)C1CC1
Hey, can you sort those compounds up there by inhibition, smallest first? Kindly provide the labels arranged according to the requested ordering.
C, D, B, A
